TARGET DESC: T1, extracellular domain of human BCMA (human, UniProt Q02223 1-54)
T1 construct: amine-linked to Octet AR2G tips; also called hsBCMA; BCMA (human)
T1 sequence: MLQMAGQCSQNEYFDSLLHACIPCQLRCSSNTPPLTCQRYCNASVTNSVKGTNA
ASSAY NAME: Octet BLI; Fab 200 nM
Record form. Attribute: Kd. Fill in for each entry.
Numbers only, in nM.

For every listed record, write down its Kd.
1. AB200-R1a-Fab_Vk9 (Fab, V domains shown) VH: QVQLVQSGAEVKKPGSSVKVSCKASGGTFSNYWMHWVRQAPGQGLEWMGATYRGHSDTYYNQKFKGRVTITADKSTSTAYMELSSLRSEDTAVYYCARGAIYHGYDVLDNWGQGTLVTVSS VL: DIQMTQSPSSLSASVGDRVTITCSASQEISNYLNWYQQKPGKAPKLLIYATSNLHSGVPSRFSGSGSGTDFTLTISSLQPEDFATYYCQQYRKLPWSFGQGTKLEIKR
2. AB200-R1a-Fab_Vk20 (Fab, V domains shown) VH: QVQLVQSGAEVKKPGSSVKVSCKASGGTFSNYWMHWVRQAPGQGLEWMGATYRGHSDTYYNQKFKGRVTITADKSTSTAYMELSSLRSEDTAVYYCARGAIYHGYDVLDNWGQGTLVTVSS VL: DIQMTQSPSSLSASVGDRVTITCSASQDISNFLNWYQQKPGKAPKLLIYYTSDLHSGVPSRFSGSGSGTDFTLTISSLQPEDFATYYCQQYYKLPWTFGQGTKLEIKR

1: 2.04; 2: 12.8
